Tested on: HIV-1 (strain LAV)
Assay type: cell-based
Settings: Table 5, anti-HIV activity in PBM cells
Rule: EC90 below 20 µM gives T, anything at or above gives F.

compound: Nc1ccn([C@H]2C[Se][C@@H](CO)O2)c(=O)n1 [(−)-β-Se-ddC]
class: T
--
compound: Nc1ccn([C@@H]2C[Se][C@H](CO)O2)c(=O)n1 [(+)-β-Se-ddC]
class: F
--
compound: Nc1nc(=O)n(C2C[Se]C(CO)O2)cc1F (stereo not drawn) [(−)-β-Se-FddC]
class: T
--
compound: Nc1nc(=O)n(C2C[Se]C(CO)O2)cc1F (stereo not drawn) [(+)-β-Se-FddC]
class: F
--
compound: Nc1nc(=O)n(C2C[Se]C(CO)O2)cc1F (racemic) [(±)-β-Se-FddC]
class: T
--
compound: Nc1ccn(C2C[Se]C(CO)O2)c(=O)n1 (racemic) [(±)-β-Se-ddC]
class: F
